# Test system: rat erythrocytes
# method: Hemolysis assay
# Assay type: cell-based
# setupConditions: pH 7.4
# Method: The hemolysis assay was performed using rat erythrocytes in phosphate‐buffered saline (PBS), as reported by Mendes et al.^[ [45] ^] Animal studies were approved by the Laboratory Animal Resource Center of Gwangju Institute of Science and Technology. […] Aliquots (150 µL) of the supernatant were transferred to fresh 96‐well plates, and the absorbance of each well was measured at 540 nm using a microplate reader. […]
Square brackets hold non-standard residues; d marks the D form. Peptide text beside a SMILES is read from it. Gly(N(CH2)2(3-indolyl)) = O=C(O)CNCCc1c[nH]c2ccccc12; Nspe = C[C@H](NCC(=O)O)c1ccccc1; Nlys = NCCCCNCC(=O)O
outcomeMeasure: HC50 (µM)

[
  {
    "compound": "C[C@@H](c1ccccc1)N(CC(=O)N(CCCCN)CC(=O)N(CC(=O)N(CC(=O)N(CCCCN)CC(=O)N(CC(=O)N(CC(=O)N(CCCCN)CC(N)=O)[C@@H](C)c1ccccc1)[C@@H](C)c1ccccc1)[C@@H](C)c1ccccc1)[C@@H](C)c1ccccc1)C(=O)CN(C(=O)CN(CCCCN)C(=O)CN(CCc1c[nH]c2ccccc12)C(=O)CNCCc1c[nH]c2ccccc12)[C@@H](C)c1ccccc1 [peptoid 37] (H-[Gly(N(CH2)2(3-indolyl))][Gly(N(CH2)2(3-indolyl))][Nlys][Nspe][Nspe][Nlys][Nspe][Nspe][Nlys][Nspe][Nspe][Nlys]-NH2)",
    "dataValue": 57.0
  }
]
